Test system: MS2 coat protein
Test: apparent KD of MS2 coat protein; designed switch direction (-1 OFF switch, 1 ON switch): 1; higher = weaker reporter binding
Details: Eterna round: R98; input ligand: FMN 200 uM
ASSAY READOUT: apparent KD of MS2 coat protein (nM)
Kindly answer with a numeric value in nM, unit omitted.

Here are 2 sequences together with their reported answers.
MONOMER SEQUENCE: GACUUGGCUACAUGAGGAUCACCCAUGUUUGACUGGAUCGAUUAGGAUAUAGUGAUUUGCAACAAUUAGAAGGGAUAUUUACGG [byesamestateseeyounextround#3]
OBSERVED MEASUREMENT: 31.3
//
MONOMER SEQUENCE: CCGAUUAGCACAGGAUAUGGGAGUUCGUAGCUCCCAGAAGGGUGAGCCAAUACAUGAGGAUCACCCAUGUGCGGUAGGUCAGGA [Energe]
OBSERVED MEASUREMENT: 56

Could you now look at the following sequence, please?
## Task Query for MS2 coat protein: what apparent KD of MS2 coat protein does the record show for UAGAUAUGGUGAGGAUAUGCAGAGGAUCACCCUGUAGAAGGCAUCAGGGUAGAAGGUGCAAGGAUCACCUGUAAGGAUAUAUCC [pwkr2 ssNG1 DX.29] ?
## Result 917

###

Tested on: K4 kissing-loop RNA reporter;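 further: bound reporter read as fluorescence of individual clusters on recovered sequencing chips by microscopy, with normalized cluster intensities fitted with a binding model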
Experiment: apparent KD of K4 kissing-loop reporter; higher = weaker reporter binding
Conditions: Eterna round: R107; input ligand: theophylline 20 uM
ASSAY READOUT: apparent KD of K4 kissing-loop reporter (nM)
Kindly answer with a numeric value in nM, unit omitted.

MONOMER SEQUENCE: GCCGUAGAUUGAAGGAGCGGUAUGGGCGUUGGCUGAGUGAUGUUCAGGGAAAGUGGCUUCUACCAGGUAGGUCGCAAUCUACGGC
apparent KD of K4 kissing-loop reporter [nM]: 170
//
MONOMER SEQUENCE: ACCUAGUAGACAGGAUAUCACGAUGACAGUGAUGUUGUCAUCAUCGAUUUGAGGAAACUCAGAUCGUGAGAAGGGUCUAACGACU [FMN B SS t7a]
apparent KD of K4 kissing-loop reporter [nM]: 168

Could you now look at the following sequence, please?
## Task Form field: reported apparent KD of K4 kissing-loop reporter of CACGAUGAAUUCUCUAGGAGUGAUGUUUUUCGAGGACCGGUACGGCCGCCACUCGGACGACGAGCGUGGUAGCGGCCUGAAGACU [,omullin]
## Result 680

###

Each entry below carries its recorded apparent KD of MS2 coat protein.
Test system: MS2 coat protein
Test: apparent KD of MS2 coat protein; designed switch direction (-1 OFF switch, 1 ON switch): -1; higher = weaker reporter binding
Settings: Eterna round: R95; input ligand: microRNA oligo, concentration not stated
Kindly answer with a numeric value in nM, unit omitted.

Here are 10 sequences together with their reported answers.
MONOMER SEQUENCE: AAAACACAUGAGGAUCACCCAUGUGAGGAUAUGUUAAUUUCGGCCAAAGCCGAAAUUAACAGAAGGCACAUAAA [JR_Exclusion1_Sub019] (puzzle: Exclusion 1)
TARGET: MS2 coat protein
UNIT NAME: nM
OBSERVED MEASUREMENT: 46
//
MONOMER SEQUENCE: GUCUCGUGAGGAUAUCAUGAUUGACUUAAUUUAUUUUAGCGUGAGAAGGCACAUGAGGAUCACCCAUGUGAUUC [Ex4 - 3 - 5] (puzzle: Exclusion 4)
TARGET: MS2 coat protein
UNIT NAME: nM
OBSERVED MEASUREMENT: 17.1
//
MONOMER SEQUENCE: AAAUAAUAGAUAAAAUAAAACAUGAGGAUCACCCAUGUGGGAUGUUGAGGGUGAUACAAGCUUUUUGCUCGUCUUAU (puzzle: Sensor v3, turn-off variant 1)
TARGET: MS2 coat protein
UNIT NAME: nM
OBSERVED MEASUREMENT: 45.6
//
MONOMER SEQUENCE: AAAAAACAAGGAUAUACGAAGGAUGAUUAUCUUAAUUUUUGACAUGAGGAUCACCCAUGUAGAAGGUGUUAAAA [JR_Exclusion2_Sub008] (puzzle: Exclusion 2)
TARGET: MS2 coat protein
UNIT NAME: nM
OBSERVED MEASUREMENT: 51.5
//
MONOMER SEQUENCE: GGUCUGCGAGGAUAUACAUGAGGAUCACCCAUGUGAGUGAUACUAGUGAGGUCGAUUGGUAGAAGGCGCGGACG [JL-ex3-2.05 salish99 mod] (puzzle: Exclusion 3)
TARGET: MS2 coat protein
UNIT NAME: nM
OBSERVED MEASUREMENT: 445
//
MONOMER SEQUENCE: AAAAGAAGUGUUAGGAUAUGUGUAAGUAGAAAGACACAGAAGGAACAUGAGGAUCACCCAUGUGGCCAAAGAAC [Vesotila] (puzzle: Brourd's mod of Exclusion 4)
TARGET: MS2 coat protein
UNIT NAME: nM
OBSERVED MEASUREMENT: 14.1
//
MONOMER SEQUENCE: UCAUGUAUGUAGGAUAUCGAUGUCUGCGGACAUCGAGAAGGACGUACAUGAGGAUCACCCAUGUAACUUGCAUG [Exclusion 6 - B - 11:e] (puzzle: Exclusion 6)
TARGET: MS2 coat protein
UNIT NAME: nM
OBSERVED MEASUREMENT: 17.8
//
MONOMER SEQUENCE: UAUUACUCAGGAUAUAUGAUGUGAAACAUGAGGAUCACCCAUGUAAUAUUAUGGAUGUAAAUAGAAGGGAGAUUAU [Mat - Exclusion 5 - JL mod - D19] (puzzle: Exclusion 5)
TARGET: MS2 coat protein
UNIT NAME: nM
OBSERVED MEASUREMENT: 51.8
//
MONOMER SEQUENCE: GAUCAACAUGAGGAUCACCCAUGUGAGGAUAUGAUACUAUGUACUUCGGUACAUAGUAUCAGAAGGCAUUAGGA [Ex1-3: 39] (puzzle: Exclusion 1)
TARGET: MS2 coat protein
UNIT NAME: nM
OBSERVED MEASUREMENT: 52.3
//
MONOMER SEQUENCE: UCUCGACAUGAGGAUCACCCAUGUCAGGAUAUUGUAUUAGAGGUUUUUUACCUUAUAACAAGAAGGGAUGUGUG [LRO-Excl1-23] (puzzle: Exclusion 1)
TARGET: MS2 coat protein
UNIT NAME: nM
OBSERVED MEASUREMENT: 23.6

## Task Form field: reported apparent KD of MS2 coat protein of GACCGGACGUGGUCUGGUAACAUGAGGAUCACCCAUGUAGGUCUAAGAACAAGCCUUUUGCACGCUCGUCUUAUAUU [JR_SV3TOV1_Sub061] (puzzle: Sensor v3, turn-off variant 1)
## Result 56.5
